Listed here: items and their measured MIC.
- Tested on: Candida albicans
- test: Antifungal activity against Candida albicans MTCC 9062
- Type: functional
Write the answer as a number in µg/mL, unit excluded.

> print(dat)
                                   molecule  measured.property  reported
1  CC1(C)CC(=O)C2=C(C1)Oc1ccc3ccccc3c1C2c1cn(-c2ccc(O)cc2)nn1 (stereo not given)                MIC      3.12
2  O=C1CCCC2=C1C(c1cn(-c3cccc(C(F)(F)F)c3)nn1)c1c(ccc3ccccc13)O2 (stereo not given)                MIC        50

--- query ---
Given the molecule COc1ccccc1-n1cc(C2C3=C(CCCC3=O)Oc3ccc4ccccc4c32)nn1 (stereo not given) , what is its reported MIC?
6.25

----------
- Tested on: Klebsiella aerogenes
- test: Antibacterial activity against Enterobacter aerogenes MTCC 111 by agar dilution method
- Assay type: functional
measured_property: MIC

> print(dat)
                                   compound  measured.property     reported
1  COc1ccc(-n2cc(C3C4=C(CCCC4=O)Oc4ccc5ccccc5c43)nn2)cc1 (stereo not drawn)                MIC   6.25 µg/mL
2  O=C1CCCC2=C1C(c1cn(-c3ccccc3)nn1)c1c(ccc3ccccc13)O2 (stereo not drawn)                MIC   3.12 µg/mL
3  COc1ccc(-n2cc(C3C4=C(CC(C)(C)CC4=O)Oc4ccc5ccccc5c43)nn2)cc1 (stereo not drawn)                MIC   6.25 µg/mL
4  O=C1CCCC2=C1C(c1cn(-c3cccc(C(F)(F)F)c3)nn1)c1c(ccc3ccccc13)O2 (stereo not drawn)                MIC   12.5 µg/mL
5  COc1ccccc1-n1cc(C2C3=C(CCCC3=O)Oc3ccc4ccccc4c32)nn1 (stereo not drawn)                MIC   6.25 µg/mL
6  COc1ccccc1-n1cc(C2C3=C(CC(C)(C)CC3=O)Oc3ccc4ccccc4c32)nn1 (stereo not drawn)                MIC  > 100 µg/mL
7  CC1(C)CC(=O)C2=C(C1)Oc1ccc3ccccc3c1C2c1cn(-c2ccccc2)nn1 (stereo not drawn)                MIC   6.25 µg/mL

Continue with the compound presented below.
Field request: MIC | item: O=C1CCCC2=C1C(c1cn(-c3ccccc3Cl)nn1)c1c(ccc3ccccc13)O2 (stereo not drawn)
50 µg/mL

----------
In this section we review reported MIC values for a set of molecules.
- Test system: Escherichia coli
- test: Antibacterial activity against Escherichia coli MTCC 1652 by agar dilution method
- Type: functional

> print(dat)
                                   molecule    reported
1  CC1(C)CC(=O)C2=C(C1)Oc1ccc3ccccc3c1C2c1cn(-c2ccc(Cl)cc2)nn1 (configuration not stated)  12.5 µg/mL
2  COc1ccccc1-n1cc(C2C3=C(CC(C)(C)CC3=O)Oc3ccc4ccccc4c32)nn1 (configuration not stated)    25 µg/mL

What measured MIC is associated with O=C1CCCC2=C1C(c1cn(-c3ccc(O)cc3)nn1)c1c(ccc3ccccc13)O2 (configuration not stated) on Escherichia coli?
> 100 µg/mL

What about this molecule? O=C1CCCC2=C1C(c1cn(-c3cccc(C(F)(F)F)c3)nn1)c1c(ccc3ccccc13)O2 (configuration not stated)
12.5 µg/mL

Try O=C1CCCC2=C1C(c1cn(-c3ccc([N+](=O)[O-])cc3)nn1)c1c(ccc3ccccc13)O2 (configuration not stated) next.
50 µg/mL

One more molecule: CC1(C)CC(=O)C2=C(C1)Oc1ccc3ccccc3c1C2c1cn(-c2ccc(O)cc2)nn1 (configuration not stated)
3.12 µg/mL

Ok, now COc1ccc(-n2cc(C3C4=C(CC(C)(C)CC4=O)Oc4ccc5ccccc5c43)nn2)cc1 (configuration not stated)
12.5 µg/mL

Also O=C1CCCC2=C1C(c1cn(-c3ccccc3Cl)nn1)c1c(ccc3ccccc13)O2 (configuration not stated) , if possible.
12.5 µg/mL

CC1(C)CC(=O)C2=C(C1)Oc1ccc3ccccc3c1C2c1cn(-c2ccc([N+](=O)[O-])cc2)nn1 (configuration not stated) ?
3.12 µg/mL

Another molecule to check: COc1ccc(-n2cc(C3C4=C(CCCC4=O)Oc4ccc5ccccc5c43)nn2)cc1 (configuration not stated)
3.12 µg/mL

----------
- Test system: Candida albicans
- test: Antifungal activity against Candida albicans MTCC 9062
- Assay type: functional
measured_property: MIC (µg/mL)
Provide the reading as a plain figure in µg/mL.

Lookup: MIC / Candida albicans / CC1(C)CC(=O)C2=C(C1)Oc1ccc3ccccc3c1C2c1cn(-c2ccc(Cl)cc2)nn1 (configuration not stated)
12.5

Also, CC1(C)CC(=O)C2=C(C1)Oc1ccc3ccccc3c1C2c1cn(-c2ccccc2)nn1 (configuration not stated) please.
25

Same question, CC1(C)CC(=O)C2=C(C1)Oc1ccc3ccccc3c1C2c1cn(-c2ccccc2Cl)nn1 (configuration not stated) this time
3.12

Can you handle CC1(C)CC(=O)C2=C(C1)Oc1ccc3ccccc3c1C2c1cn(-c2cccc(C(F)(F)F)c2)nn1 (configuration not stated) next?
100

Try O=C1CCCC2=C1C(c1cn(-c3ccccc3)nn1)c1c(ccc3ccccc13)O2 (configuration not stated) next.
3.12

# repeat for CC1(C)CC(=O)C2=C(C1)Oc1ccc3ccccc3c1C2c1cn(-c2ccc([N+](=O)[O-])cc2)nn1 (configuration not stated)
3.12

Also check COc1ccc(-n2cc(C3C4=C(CC(C)(C)CC4=O)Oc4ccc5ccccc5c43)nn2)cc1 (configuration not stated)
6.25

Thanks! And COc1ccccc1-n1cc(C2C3=C(CC(C)(C)CC3=O)Oc3ccc4ccccc4c32)nn1 (configuration not stated) ?
25

Repeat for the following compound: COc1ccc(-n2cc(C3C4=C(CCCC4=O)Oc4ccc5ccccc5c43)nn2)cc1 (configuration not stated)
3.12

----------
- test: Lipophilicity, log P of the compound
- Assay type: physicochemical
- condition_set: octanol/water
Respond with 1.0 for logP values of 5 and above, 0.0 for values below.

Before answering, review these 4 worked examples.
> print(dat)
                                   compound  label
1  O=C1CCCC2=C1C(c1cn(-c3cccc(C(F)(F)F)c3)nn1)c1c(ccc3ccccc13)O2 (centres undefined)    0.0
2  COc1ccc(-n2cc(C3C4=C(CC(C)(C)CC4=O)Oc4ccc5ccccc5c43)nn2)cc1 (centres undefined)    0.0
3  O=C1CCCC2=C1C(c1cn(-c3ccccc3)nn1)c1c(ccc3ccccc13)O2 (centres undefined)    0.0
4  CC1(C)CC(=O)C2=C(C1)Oc1ccc3ccccc3c1C2c1cn(-c2ccc(Cl)cc2)nn1 (centres undefined)    1.0

Answer whether logP of O=C1CCCC2=C1C(c1cn(-c3ccc(Cl)cc3)nn1)c1c(ccc3ccccc13)O2 (centres undefined) is greater than or equal to 5.
0.0

Now this one: COc1ccccc1-n1cc(C2C3=C(CCCC3=O)Oc3ccc4ccccc4c32)nn1 (centres undefined)
0.0

----------
- System: Klebsiella aerogenes
- test: Antibacterial activity against Enterobacter aerogenes MTCC 111 by agar dilution method
- Format: functional
measured_property: MIC (µg/mL)
# unit: µg/mL | format: bare number

These recorded examples may help you get a feel for the data.
> print(dat)
                                   molecule  reported
1  CC1(C)CC(=O)C2=C(C1)Oc1ccc3ccccc3c1C2c1cn(-c2ccc(Cl)cc2)nn1 (centres undefined)      12.5
2  CC1(C)CC(=O)C2=C(C1)Oc1ccc3ccccc3c1C2c1cn(-c2cccc(C(F)(F)F)c2)nn1 (centres undefined)        25
3  CC1(C)CC(=O)C2=C(C1)Oc1ccc3ccccc3c1C2c1cn(-c2ccc(O)cc2)nn1 (centres undefined)      6.25
4  O=C1CCCC2=C1C(c1cn(-c3ccc(Cl)cc3)nn1)c1c(ccc3ccccc13)O2 (centres undefined)      12.5
5  CC1(C)CC(=O)C2=C(C1)Oc1ccc3ccccc3c1C2c1cn(-c2ccc([N+](=O)[O-])cc2)nn1 (centres undefined)      3.12

API: the following record is the query input.
Form field - read-out: MIC; system: Klebsiella aerogenes; submitted item: CC1(C)CC(=O)C2=C(C1)Oc1ccc3ccccc3c1C2c1cn(-c2ccccc2Cl)nn1 (centres undefined)
12.5

----------
- test: Lipophilicity, log P of the compound
- Format: physicochemical
- condition_set: octanol/water
Doc: threshold 4 (exclusive). Items with logP beneath it return met; others return not met.

Worked examples, 4 compounds total:
> print(dat)
                                   compound    label
1  O=C1CCCC2=C1C(c1cn(-c3ccccc3Cl)nn1)c1c(ccc3ccccc13)O2 (stereo not given)  not met
2  CC1(C)CC(=O)C2=C(C1)Oc1ccc3ccccc3c1C2c1cn(-c2ccc(O)cc2)nn1 (stereo not given)  not met
3  COc1ccc(-n2cc(C3C4=C(CCCC4=O)Oc4ccc5ccccc5c43)nn2)cc1 (stereo not given)      met
4  CC1(C)CC(=O)C2=C(C1)Oc1ccc3ccccc3c1C2c1cn(-c2ccccc2)nn1 (stereo not given)  not met

is_below(logP, 4) for O=C1CCCC2=C1C(c1cn(-c3ccc(O)cc3)nn1)c1c(ccc3ccccc13)O2 (stereo not given) ?
met
